Target: human TLR7 (Homo sapiens (Human))
Sequence (Q9NYK1 27-1049): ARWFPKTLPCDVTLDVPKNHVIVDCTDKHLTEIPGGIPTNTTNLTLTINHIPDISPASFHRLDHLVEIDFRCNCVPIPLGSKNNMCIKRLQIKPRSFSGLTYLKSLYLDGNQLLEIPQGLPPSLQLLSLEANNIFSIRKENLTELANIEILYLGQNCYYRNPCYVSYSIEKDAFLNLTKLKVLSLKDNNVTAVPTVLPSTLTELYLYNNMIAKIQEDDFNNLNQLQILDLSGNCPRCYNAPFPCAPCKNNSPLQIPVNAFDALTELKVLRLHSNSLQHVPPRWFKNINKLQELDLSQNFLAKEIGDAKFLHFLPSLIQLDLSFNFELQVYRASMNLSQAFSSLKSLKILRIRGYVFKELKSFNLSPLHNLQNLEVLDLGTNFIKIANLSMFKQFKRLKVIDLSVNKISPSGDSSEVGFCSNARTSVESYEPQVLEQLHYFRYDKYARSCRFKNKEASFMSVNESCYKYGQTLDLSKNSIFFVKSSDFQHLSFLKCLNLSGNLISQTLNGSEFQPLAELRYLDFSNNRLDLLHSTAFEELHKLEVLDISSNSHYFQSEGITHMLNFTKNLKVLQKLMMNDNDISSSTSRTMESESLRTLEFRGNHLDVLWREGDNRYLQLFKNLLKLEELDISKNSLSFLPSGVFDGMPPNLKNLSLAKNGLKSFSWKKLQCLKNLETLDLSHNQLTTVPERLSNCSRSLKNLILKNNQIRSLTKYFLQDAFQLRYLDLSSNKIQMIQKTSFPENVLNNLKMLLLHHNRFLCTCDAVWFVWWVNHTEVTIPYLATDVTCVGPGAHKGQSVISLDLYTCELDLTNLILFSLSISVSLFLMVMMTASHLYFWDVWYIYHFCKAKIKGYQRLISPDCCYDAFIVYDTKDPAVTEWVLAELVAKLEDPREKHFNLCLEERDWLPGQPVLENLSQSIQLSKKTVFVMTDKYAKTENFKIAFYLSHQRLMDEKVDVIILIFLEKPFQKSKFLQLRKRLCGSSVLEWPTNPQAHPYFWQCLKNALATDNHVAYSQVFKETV
Test: HEK-Blue human TLR7 cells NF-κB SEAP reporter assay
Details: stimulation for 20 hours
property_name: EC50 (µM)

Example entries begin here.
{"compound": "CCCN(CCC)C(=O)C1=Cc2ccc(-c3cncc(S(=O)(=O)N4CCC(N)C4)c3)cc2N=C(N)C1 (stereo not drawn)", "assayed_system": "human TLR7 (Homo sapiens (Human))", "EC50 / µM": 17}
{"compound": "CCCN(CCC)C(=O)C1=Cc2ccc(-c3cc(C)cc(S(=O)(=O)N4CC[C@@H](O)C4)c3)cc2N=C(N)C1", "assayed_system": "human TLR7 (Homo sapiens (Human))", "EC50 / µM": 13}
{"compound": "CCCN(CCC)C(=O)C1=Cc2ccc(-c3cccc(S(=O)(=O)NCCOCCO)c3)cc2N=C(N)C1", "assayed_system": "human TLR7 (Homo sapiens (Human))", "EC50 / µM": 12}

(P) CCCN(CCC)C(=O)C1=Cc2ccc(-c3ccc(S(=O)(=O)N4CCC(O)C4)cc3)cc2N=C(N)C1 (stereo not drawn)
(Q) CCCN(CCC)C(=O)C1=Cc2ccc(-c3cccc(S(=O)(=O)N4CC(CO)C4)c3)cc2N=C(N)C1
q: Endpoint returns the identifier whose EC50 is numerically larger, either P or Q . API: response body contains the label of the selected item.
a: P
(P: 104 µM, Q: 26 µM)

###

Molecular target: human TLR8 (Homo sapiens (Human))
Sequence (Q9NR97 27-1041): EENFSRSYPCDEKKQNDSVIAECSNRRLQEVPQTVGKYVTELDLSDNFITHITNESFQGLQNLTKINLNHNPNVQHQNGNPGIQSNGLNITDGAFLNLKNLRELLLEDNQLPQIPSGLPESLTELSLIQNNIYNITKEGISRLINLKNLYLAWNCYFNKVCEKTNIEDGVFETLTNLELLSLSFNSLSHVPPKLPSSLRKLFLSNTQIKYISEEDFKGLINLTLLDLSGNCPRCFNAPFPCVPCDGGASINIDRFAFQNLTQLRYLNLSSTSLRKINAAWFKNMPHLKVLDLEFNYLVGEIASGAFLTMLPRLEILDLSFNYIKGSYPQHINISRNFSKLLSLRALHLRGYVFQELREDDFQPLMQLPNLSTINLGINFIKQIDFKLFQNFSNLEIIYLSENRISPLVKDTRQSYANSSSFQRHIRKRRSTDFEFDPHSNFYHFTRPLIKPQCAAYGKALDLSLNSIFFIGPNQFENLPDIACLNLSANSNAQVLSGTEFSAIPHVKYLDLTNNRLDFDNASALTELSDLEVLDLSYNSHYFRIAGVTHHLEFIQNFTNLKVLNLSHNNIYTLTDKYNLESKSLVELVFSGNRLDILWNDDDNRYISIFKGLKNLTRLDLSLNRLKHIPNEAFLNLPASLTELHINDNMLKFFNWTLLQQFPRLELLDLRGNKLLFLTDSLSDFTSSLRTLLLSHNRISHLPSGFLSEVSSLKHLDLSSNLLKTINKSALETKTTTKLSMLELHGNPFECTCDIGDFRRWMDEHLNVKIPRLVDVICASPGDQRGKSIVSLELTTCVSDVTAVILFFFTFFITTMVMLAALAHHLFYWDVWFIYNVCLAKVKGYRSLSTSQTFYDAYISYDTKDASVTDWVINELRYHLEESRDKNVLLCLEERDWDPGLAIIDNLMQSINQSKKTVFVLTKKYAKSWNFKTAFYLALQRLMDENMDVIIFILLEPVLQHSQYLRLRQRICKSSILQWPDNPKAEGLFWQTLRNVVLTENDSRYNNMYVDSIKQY
Test: HEK-Blue human TLR8 cells NF-κB SEAP reporter assay
Details: stimulation for 20 hours
pEC50: −log10 of the molar value.
property_name: pEC50

Example entries begin here.
{"compound": "CCCN(CCC)C(=O)C1=Cc2ccc(-c3ccc(S(=O)(=O)N4CCC(O)C4)cc3)cc2N=C(N)C1 (stereo not drawn) [Example 6]", "endpoint_value": 8.00}
{"compound": "CCCN(CCC)C(=O)C1=Cc2ccc(-c3cccc(S(=O)(=O)NCCCCCCO)c3)cc2N=C(N)C1 [Example 12]", "endpoint_value": 8.10}
{"compound": "CCCN(CCC)C(=O)C1=Cc2ccc(-c3cccc(S(=O)(=O)N4CCC[C@H](O)C4)c3)cc2N=C(N)C1 [Example 18]", "endpoint_value": 8.22}

(P) CCCN(CCC)C(=O)C1=Cc2ccc(-c3cc(C(F)(F)F)cc(S(=O)(=O)N4CC[C@@H](O)C4)c3)cc2N=C(N)C1 [Example 14]
(Q) CCCN(CCC)C(=O)C1=Cc2ccc(-c3cncc(S(=O)(=O)N4CCC(N)C4)c3)cc2N=C(N)C1 (stereo not drawn) [Example 22]
(R) CCCN(CCC)C(=O)C1=Cc2ccc(-c3cccc(S(=O)(=O)N4CCNCC4)c3)cc2N=C(N)C1 [Example 21]
q: Ascending by pEC50, please. Returns: the labels arranged in the requested order.
a: Q, R, P
(Q: 7.51, R: 7.74, P: 8.05)
